EC50 (cAMP) for assorted binders
Target: T1, human GLP-2 receptor (human, UniProt O95838 1-553)
T1 sequence (looked up): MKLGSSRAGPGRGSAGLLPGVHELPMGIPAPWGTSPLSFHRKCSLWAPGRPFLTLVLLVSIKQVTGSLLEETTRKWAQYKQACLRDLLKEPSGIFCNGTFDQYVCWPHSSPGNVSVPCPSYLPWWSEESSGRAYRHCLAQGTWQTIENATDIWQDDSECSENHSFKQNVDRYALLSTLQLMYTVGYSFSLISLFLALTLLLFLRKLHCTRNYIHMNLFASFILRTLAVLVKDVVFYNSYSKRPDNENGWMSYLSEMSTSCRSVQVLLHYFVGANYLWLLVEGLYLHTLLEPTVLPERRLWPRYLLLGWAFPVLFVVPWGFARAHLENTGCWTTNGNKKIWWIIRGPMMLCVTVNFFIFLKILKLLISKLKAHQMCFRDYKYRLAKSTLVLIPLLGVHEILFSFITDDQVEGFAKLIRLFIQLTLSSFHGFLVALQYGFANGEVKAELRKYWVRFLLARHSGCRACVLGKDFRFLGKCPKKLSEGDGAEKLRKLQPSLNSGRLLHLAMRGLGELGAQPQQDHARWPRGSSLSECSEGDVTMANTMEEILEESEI
Assay: cell-based or functional assay
Ends that are not written are not given here. * marks the point of attachment. Palmitoyl = CCCCCCCCCCCCCCCC(=O)*; Lauroyl = CCCCCCCCCCCC(=O)*

binder: HADGTFSSDYSTILDNLAAKDFINWLIQTKITD [GIP-GLP-2 co-agonist 20]
EC50 (cAMP): 1.2 nM
--
binder: HADGTFISDYSTILDNLAARDFINWLIQTKGK(Lauroyl)K [GIP-GLP-2 co-agonist 35]
EC50 (cAMP): 2.3 nM
--
binder: HADGTFISDYSTILDNLAARDFINWLIQTK(Palmitoyl)ITK [GIP-GLP-2 co-agonist 31]
EC50 (cAMP): 107 nM
--
binder: HADGTFISDYSTILDNLAARDFINWLIQTKGKKNDWKHNITQ [GIP-GLP-2 co-agonist 34]
EC50 (cAMP): 1.2 nM
--
binder: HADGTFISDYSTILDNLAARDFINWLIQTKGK(Palmitoyl)K [GIP-GLP-2 co-agonist 36]
EC50 (cAMP): 20 nM
--
binder: HADGTFSSDYSTILDNLAARDFINWLIQTKITD (not fully specified (residue 1, N-terminus); also: C16 acyl group on His 1 (attachment site not given here)) [GIP-GLP-2 co-agonist 22]
EC50 (cAMP): 1.3 nM
